Test system: RXF 393 renal
Assay: NCI-60 one-dose screen, 48 h
Conditions: 10 µM unless noted
The panel holds about 83,000 compounds, 20% with a hit somewhere; the sample as a whole holds those more often. Activity calls are given as the source filed them. Rule for the calls: active = growth percent below 10; inactive = the rest.
// allowed return values: active, inactive

INSERT INTO results (molecule, label_class) VALUES
  ('O=C1Nc2cc(Cl)ccc2/C1=C\c1ccc(OCc2ccc([N+](=O)[O-])cc2)cc1', 'inactive'),
  ('CN(C)c1ccc(/C=c2\sc3nc4ccccc4n3c2=O)cc1', 'inactive'),
  ('N#Cc1ccc(C(=O)CSc2nc(Nc3ccc(S(N)(=O)=O)cc3)c3ccccc3n2)cc1', 'inactive'),
  ('CN1CCN(Cc2ccc(NC(=O)c3cncc(C#Cc4cnc5[nH]ncc5c4)c3)cc2C(F)(F)F)CC1', 'active'),
  ('C/C(=N/NC(N)=S)c1ccc(Nc2nc(SCC(C)C)nc(-c3ccc(F)cc3)c2C#N)cc1', 'active');

Call for entry `COc1cc(/C=C/C(=O)c2ccccc2)ccc1Oc1nc(NCCO)nc(N2CCOCC2)n1` :
inactive

Call for entry `O=C(N/N=C/c1cccs1)c1[nH]c2ccc(Br)cc2c1-c1ccccc1` :
inactive

Call for entry `Cc1ccc(/C=C/c2nn3c(-c4ccco4)nnc3s2)cc1C` :
inactive

---

Test system: SN12C renal
Assay: NCI-60 one-dose screen, 48 h (100 = growth as untreated, 0 = no growth, -100 = all killed)
Settings: 10 µM unless noted
Description: Growth inhibition of the SN12C human tumor cell line is measured as a screen for anti-cancer activity. Cells are grown in 96 well plates and exposed to the test compound for 48 hours. Compounds are tested at a single concentration, which is 10^-5 M for most compounds. The reported endpoint is percent growth (GI% or GIPRCNT), where numbers from 0 - 100% represent growth inhibition, and numbers from -100% - 0 represent cell death. For example, a value of 40 represents 60% growth inhibition. […]
About 83,000 compounds went through this panel and 20% of them were active in at least one assay; those are over-represented in the sample as a whole. Active and inactive are the calls of the source. The calls were made as follows: active = growth percent below 10; inactive = the rest.
REPORTED_ENDPOINT: growth

INSERT INTO results (molecule, endpoint_result) VALUES
  ('O=C(NNc1nc2cc(F)ccc2n2c(CN3CC4(COC4)C3)ccc12)c1cnccn1', '22.4% (inactive)'),
  ('CC(C)(C)Nc1nc2c(OCCc3ccccc3)cccn2c1-c1ccc(Cl)cc1', '10.3% (inactive)'),
  ('CC(=O)Nc1cc(F)cc(-c2ccc3[nH]cc(-c4ccccc4)c3n2)c1', '32.7% (inactive)'),
  ('O=C1c2c(c3c4cc(Br)ccc4[nH]c3c3ccc4ccccc4c23)C(=O)N1CCO', '89.5% (inactive)');

State growth on SN12C renal. Entry: COc1ccc([C@@H]2c3[nH]c4ccccc4c3CC3C(=O)N(C4CCN(Cc5c(F)cccc5F)CC4)CC(=O)N32)c(OC)c1 (some centres undefined)
67.5% [5.26 µM] (inactive)

State growth on SN12C renal. Entry: `COc1ccc(/C=C/C(=O)c2ccc(NC(=O)CSc3nnc(-c4ccc5nc(-c6ccc(Cl)cc6)[nH]c5c4)o3)cc2)cc1`
93.4% (inactive)

State growth on SN12C renal. Entry: `COc1ccc(C(=O)/C=C/c2ccc(Oc3nc(NCCO)nc(N4CCOCC4)n3)c(OC)c2)cc1`
86.2% (inactive)

State growth on SN12C renal. Entry: COc1cc(-c2ccc3ncnc(NC(C)c4ccccc4)c3c2)cnc1OC (centres undefined)
39.1% (inactive)

State growth on SN12C renal. Entry: `CSc1ccc2c(c1)N(C(=O)/C(C#N)=C/c1c[nH]c3ccccc13)c1ccccc1S2`
33.9% (inactive)
